The reported numbers originate from patent US6645918B1.

# Test system: giant foxtail (Setaria faberi)
# test-protocol: Preemergence herbicidal activity, giant foxtail
# Format: in vivo
# settings: 35 g/Ha, soil spray, visual after 3 weeks; 0 no injury, 100 complete kill or no germination
Listed below: SETFA preemergence injury score 0-100 values for each entry.
Lab book: enter the figure in %, no units written.

What value of measured SETFA preemergence injury score 0-100 is listed for COc1cscc1S(=O)(=O)Nc1nc2c(Cl)cnc(OC)n2n1 ?
100

Please give the measured SETFA preemergence injury score 0-100 for this molecule: COc1cc(OC)n2nc(NS(=O)(=O)c3sc(Cl)cc3OC)nc2n1
90

Reported SETFA preemergence injury score 0-100 for COc1csc(C)c1S(=O)(=O)Nc1nc2c(Cl)cnc(OC)n2n1 : what is it?
100

Need SETFA preemergence injury score 0-100, item COc1cc(Cl)sc1S(=O)(=O)Nc1nc2c(OC)cnc(OC)n2n1
90

Looking for the measured SETFA preemergence injury score 0-100 of COc1cscc1S(=O)(=O)Nc1nc2c(OC)ccc(OC)n2n1 , can you help?
0

# input molecule: COc1cscc1S(=O)(=O)Nc1nc2c(C)cnc(OC)n2n1 ; wanted: its SETFA preemergence injury score 0-100
60

Which SETFA preemergence injury score 0-100 is listed for COc1cnc(OC)n2nc(NS(=O)(=O)c3ccsc3CC(=O)O)nc12 ?
100
